Molecular target: GII.3 VLP
Test: KD value by bio-layer interferometry (BLI, BLItz), peptide on SA chip, GII.3 VLP
Format: binding, norovirus GII.3 TCH strain
Details: GII.3 VLP 1 and 0.1 mg/mL; 100 μM peptide bound to SA chip; KD calculated from Ka and Kd values
property.measured: Kd (nM)
State just the number; it will be interpreted in nM.

// sample ICSSWFPSVH [No. 48] , its Kd was 30.3

// sample YVIRNSDRHN [No. 43] , its Kd was 67.2

// sample ECMGRRWMSS [No. 154] , its Kd was 123

// sample VCVDNDISMS [No. 150] , its Kd was 437

// sample VVGFGRRSLF [No. 156] , its Kd was 1060

// sample NFRVPIRFTH [No. 131] , its Kd was 157000

// sample YVVASKSNRL [No. 143] , its Kd was 13.5

// sample GCVGDLYCSA [No. 172] , its Kd was 69300

// sample SVMVTRSLFG [No. 163] , its Kd was 7.66

// sample KYRATICHTV [No. 52] , its Kd was 13.8

// sample YRRSKSEIFV [No. 59] , its Kd was 8.87

// sample VELFLLTSSC [No. 155] , its Kd was 803000
